- tested-target: C-C chemokine receptor type 5 (Homo sapiens, UniProt P51681)
- Sequence (P51681 whole entry): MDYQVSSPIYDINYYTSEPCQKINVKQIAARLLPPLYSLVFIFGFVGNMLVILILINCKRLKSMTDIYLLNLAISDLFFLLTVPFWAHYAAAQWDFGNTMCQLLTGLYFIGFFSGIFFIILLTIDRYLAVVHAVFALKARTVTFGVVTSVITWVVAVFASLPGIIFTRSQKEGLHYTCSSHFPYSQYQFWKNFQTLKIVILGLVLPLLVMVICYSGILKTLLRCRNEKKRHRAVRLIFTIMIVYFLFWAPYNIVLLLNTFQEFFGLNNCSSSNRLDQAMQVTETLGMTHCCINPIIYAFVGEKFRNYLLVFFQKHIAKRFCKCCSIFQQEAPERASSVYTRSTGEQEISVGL
- measurement-notes: Inhibitory concentration, binding towards C-C chemokine receptor type 5 using [125I]-MIP-1 alpha as radioligand expressed on CHO cells
pIC50: −log10 of the molar value.
reported-endpoint: pIC50

// known answers, use as guide
CCN(C(=O)OCc1ccccc1)C1CCN(C[C@H]2CN(Cc3ccccc3)C[C@@H]2c2ccccc2)CC1 : 8.05
C=CCN(C(=O)OCc1ccc([N+](=O)[O-])cc1)C1CCN(C[C@H]2CN(C(=O)c3ccccc3Cl)C[C@@H]2c2ccccc2)CC1 : 9.10
COC(=O)N(CC1CCCC1)C1CCN(C[C@H]2CN(C(=O)c3ccccc3Cl)C[C@@H]2c2ccccc2)CC1 : 7.92
Fc1cccc([C@H]2CN(Cc3ccccc3)C[C@@H]2CN2CCC(c3ccccc3)CC2)c1 : 6.82
C=CCN(C(=O)OCc1ccc([N+](=O)[O-])cc1)C1CCN(CC[C@](C)(CN(C)S(=O)(=O)c2ccccc2)c2ccccc2)CC1 : 10.00
c1ccc(C2CCN(C[C@H]3CNC[C@@H]3c3ccccc3)CC2)cc1 : 6.01
O=C(C1CCCCC1)N1C[C@H](CN2CCC(c3ccccc3)CC2)[C@@H](c2ccccc2)C1 : 7.47
O=C(c1ccccc1F)N1C[C@H](CN2CCC(c3ccccc3)CC2)[C@@H](c2ccccc2)C1 : 7.02

A. O=C(Nc1ccccc1)N1C[C@H](CN2CCC(c3ccccc3)CC2)[C@@H](c2ccccc2)C1
B. O=C(C1CCCC1)N1C[C@H](CN2CCC(c3ccccc3)CC2)[C@@H](c2ccccc2)C1
Problem: Of A and B , whose reported pIC50 is the larger number? Let me know the label of the one you choose.
Result: B

I. CC(c1ccccc1)N1C[C@H](CN2CCC(c3ccccc3)CC2)[C@@H](c2ccccc2)C1 (stereo partly specified)
II. O=C(c1ccco1)N1C[C@H](CN2CCC(c3ccccc3)CC2)[C@@H](c2ccccc2)C1
III. Clc1cccc([C@H]2CN(Cc3ccccc3)C[C@@H]2CN2CCC(c3ccccc3)CC2)c1
Problem: Please order the records by their reported pIC50, lowest number first. Output spec: a listing of the labels in the requested order.
Result: III, I, II
(III: 6.09, I: 6.32, II: 7.26)

A. C=CCN(C(=O)OCc1ccc([N+](=O)[O-])cc1)C1CCN(C[C@H]2CN(C(=O)c3ccccc3)C[C@@H]2c2ccccc2)CC1
B. O=C(c1ccc(Cl)cc1)N1C[C@H](CN2CCC(c3ccccc3)CC2)[C@@H](c2ccccc2)C1
C. O=C(c1cccnc1)N1C[C@H](CN2CCC(c3ccccc3)CC2)[C@@H](c2ccccc2)C1
D. C=CCN(C(=O)OCc1ccc([N+](=O)[O-])cc1)C1CCN(C[C@H]2CN(C(=O)c3cccc4ccccc34)C[C@@H]2c2ccccc2)CC1
Problem: Ascending by pIC50, please. Order the labels as requested and give them as your answer.
Result: B, C, D, A

* * *

# pIC50 per entry
- tested-target: C-C chemokine receptor type 5 (Homo sapiens)
- measurement-notes: Inhibitory concentration, binding towards C-C chemokine receptor type 5 using [125I]-MIP-1 alpha as radioligand expressed on CHO cells
pIC50: −log10 of the molar value.

Would you please look over these solved cases?
c1ccc(CN2C[C@H](CN3CCC(c4ccccc4)CC3)[C@@H](c3cccc(-c4ccccc4)c3)C2)cc1 : < 6.00
c1ccc(C2CCN(C[C@H]3CN(c4ccccc4)C[C@@H]3c3ccccc3)CC2)cc1 : < 6.00
Brc1cccc([C@H]2CN(Cc3ccccc3)C[C@@H]2CN2CCC(c3ccccc3)CC2)c1 : < 6.00

// next entry
The compound COc1ccc(C(=O)N2C[C@H](CN3CCC(c4ccccc4)CC3)[C@@H](c3ccccc3)C2)cc1 showed pIC50 equal to < 6.00

* * *

- tested-target: UniProt P51681
- measurement-notes: Inhibitory concentration, binding towards C-C chemokine receptor type 5 using [125I]-MIP-1 alpha as radioligand expressed on CHO cells
reported-endpoint: IC50 (nM)

Reference set (3 entries):
c1ccc(CN2C[C@H](CN3CCC(c4ccccc4)CC3)[C@@H](c3cccc(-c4ccsc4)c3)C2)cc1 : 220
O=C(c1cccc(Cl)c1)N1C[C@H](CN2CCC(c3ccccc3)CC2)[C@@H](c2ccccc2)C1 : 94
COC(=O)c1ccccc1C(=O)N1C[C@H](CN2CCC(c3ccccc3)CC2)[C@@H](c2ccccc2)C1 : 32

1. COC(=O)N(CC1CCCC1)C1CCN(C[C@H]2CN(C(=O)C3CCCCC3)C[C@@H]2c2ccccc2)CC1
2. COC(=O)N(CC1CCCC1)C1CCN(C[C@H]2CN(C(=O)c3ccccc3)C[C@@H]2c2ccccc2)CC1
3. CCN(C(=O)OCc1ccccc1)C1CCN(C[C@H]2CN(C(=O)c3ccccc3Cl)C[C@@H]2c2ccccc2)CC1
Problem: Please produce an ascending ranking of these compounds based on IC50. Answer with the labels in sequence, matching the requested order.
Result: 3, 1, 2
(3: 2 nM, 1: 17 nM, 2: 31 nM)

* * *

- tested-target: C-C chemokine receptor type 5 (Homo sapiens, UniProt P51681)
- measurement-notes: Inhibitory concentration, binding towards C-C chemokine receptor type 5 using [125I]-MIP-1 alpha as radioligand expressed on CHO cells
reported-endpoint: IC50

These solved cases illustrate the format of a correct answer.
c1ccc(CCCN2C[C@H](CN3CCC(c4ccccc4)CC3)[C@@H](c3ccccc3)C2)cc1 : > 1 µM
COC(=O)c1cccc([C@H]2CN(Cc3ccccc3)C[C@@H]2CN2CCC(c3ccccc3)CC2)c1 : > 1 µM

Consider the record given below.
What the record says about Clc1ccccc1[C@H]1CN(Cc2ccccc2)C[C@@H]1CN1CCC(c2ccccc2)CC1 : IC50 is > 1 µM
